Reported pKi values for a set of compounds
Measured On: second (BD2: amino acids E352-E168) bromodomain of BRD4 (Homo sapiens, UniProt O60885)
Construct: protocol
Experiment Summary: TR-FRET bromodomain binding assay, BRD4 BD2
Assay Context: TR-FRET assay protocol (A-G, compound concentration range); Ki calculated from IC50, probe Kd and probe concentration; read-out: TR-FRET Binding Ki: BRD4 (BDII_E352-M457)
pKi: −log10 of the molar value.
Test Readout: pKi

Smiles Record | Prefix Operator | Observed Value
Cc1cc(-c2cc(=O)n(C)nc2-c2ccccc2Oc2ccccc2)ccn1 | = | 5.53
Cn1cc(-c2cc(S(C)(=O)=O)ccc2NCC2CC2)c(OC(C)(C)C(C)(C)O)cc1=O | < | 5.39
CCNC(=O)c1ccc(-c2cc(=O)n(C)nc2-c2ccccc2Oc2ccccc2)cc1 | = | 6.60
Cn1nc(-c2ccccc2Oc2ccccc2)c(-c2cccc(NS(C)(=O)=O)c2)cc1=O | = | 5.92
Cn1cc(-c2cc(NS(C)(=O)=O)ccc2Oc2ccccc2Cl)ccc1=O | = | 7.77
CCOC(=O)Cc1ccc(-c2cc(=O)n(C)nc2-c2ccccc2Oc2ccccc2)cc1 | = | 6.75
Cn1cc(-c2cc(NS(C)(=O)=O)ccc2OC2CCCC2)ccc1=O | = | 5.34
Cn1nc(-c2ccccc2-c2ccccc2)ccc1=O | = | 4.98
Cn1nc(-c2cc(C#N)ccc2Oc2ccccc2)ccc1=O | = | 4.99
Cn1cccc1-c1cc(=O)n(C)nc1-c1ccccc1Oc1ccccc1 | = | 5.84
Cc1nnc(-c2ccc(-c3cc(=O)n(C)nc3-c3ccccc3Oc3ccccc3)cc2)o1 | = | 6.62
Cn1nc(-c2ccccc2Oc2ccccc2)c(-c2ccc(C(=O)NC3CC3)cc2)cc1=O | = | 6.74
COc1cc(=O)n(C)nc1-c1cc(NS(=O)(=O)CCC(F)(F)F)ccc1Oc1ccccc1 | = | 6.64
Cn1nc(-c2ccccc2Oc2ccccc2)c(-c2cccc(C(=O)N3CCCCC3)c2)cc1=O | = | 5.32
Cn1nc(-c2ccccc2Oc2ccccc2)c(-c2ccc3scnc3c2)cc1=O | = | 6.39
